target: UniProt:P03372; experiment: Breast Cancer Cell ER-α In Cell Western Assay (SP1); format: cell-based; details: MCF-7 cells, SP1 antibody, 4 or 24 hr post compound addition; read-out: ER-α In Cell Western Assay (SP1) IC50
Each record here notes measured DC50.

See these solved cases before continuing.
chemical_string=CC/C(=C(/c1ccc(/C=C/C(=O)O)cc1)c1ccc2c(cnn2C)c1)c1ccccc1Cl assay_value="≤ 100 nM"
chemical_string=CC/C(=C(/c1ccc(/C=C/C(=O)O)cc1)c1ccc2c(cnn2C(F)F)c1)c1ccc(F)cc1Cl assay_value="≤ 100 nM"
chemical_string=CC/C(=C(/c1ccc(/C=C/C(=O)O)cc1)c1ccc2[nH]ncc2c1)c1ccc(C(F)(F)F)cc1C#N assay_value="≤ 100 nM"

Query: DC50; subject: `Cc1cc(F)ccc1/C(=C(\c1ccc(/C=C/C(=O)O)cc1)c1ccc2[nH]ncc2c1F)C1CC1` ≤ 100 nM

Which DC50 is reported for this compound? `O=C(O)/C=C/c1ccc(/C(=C(\c2ccccc2)C2CCC2)c2ccc3[nH]ncc3c2)cc1` ≤ 100 nM

Endpoint output: DC50 of `O=C(O)/C=C/c1ccc(/C(=C(\c2ccc(F)cc2Cl)C(F)F)c2ccc3[nH]ncc3c2)cc1` . Value? ≤ 100 nM

----------
Property: Emax; scope: individual compounds
target: ER-α (Homo sapiens); experiment: Breast Cancer Cell ER-α In Cell Western Assay (SP1); assay type: cell-based; conditions: MCF7; MCF-7 cells, SP1 antibody, 4 or 24 hr post compound addition; read-out: ER-α In Cell Western Assay (SP1) Max Response

compound="CC/C(=C(/c1ccc(/C=C/C(=O)O)cc1)c1cc(F)c2[nH]ncc2c1)c1ccccc1 [Compound 62]" target_or_system="ER-α (Homo sapiens)" assay_value="≥ 40%"
compound="CC/C(=C(/c1ccc(/C=C/C(=O)O)cc1)c1ccc2[nH]ncc2c1)c1ccc(C#N)cc1Cl [Compound 140]" target_or_system="ER-α (Homo sapiens)" assay_value="≥ 40%"
compound="CC/C(=C(/c1ccc(/C=C/C(=O)O)cc1)c1cc2cn[nH]c2cc1C)c1ccccc1 [Compound 38]" target_or_system="ER-α (Homo sapiens)" assay_value="≥ 40%"
compound="CC/C(=C(/c1ccc(/C=C(\\Cl)C(=O)O)cc1)c1ccc2[nH]ncc2c1)c1ccccc1 [Compound 104]" target_or_system="ER-α (Homo sapiens)" assay_value="≥ 40%"
compound="CC/C(=C(/c1ccc(/C=C(\\C)C(=O)O)cc1)c1ccc2[nH]ncc2c1)c1ccccc1 [Compound 99]" target_or_system="ER-α (Homo sapiens)" assay_value="≥ 40%"

// map CC/C(=C(/c1ccc(/C=C/C(=O)O)cc1)c1ccc2c(cnn2C)c1)c1ccccc1Cl [Compound 145] to recorded Emax (system: ER-α (Homo sapiens)) ≥ 40%

Give the reported Emax for O=C(O)/C=C/c1ccc(/C(=C(\c2ccccc2)C2CC2)c2ccc3[nH]ncc3c2F)cc1 [Compound 75] (system: ER-α (Homo sapiens)). ≥ 40%

----------
Biological target: ER-α (Homo sapiens, UniProt P03372)
Sequence (P03372 1-595): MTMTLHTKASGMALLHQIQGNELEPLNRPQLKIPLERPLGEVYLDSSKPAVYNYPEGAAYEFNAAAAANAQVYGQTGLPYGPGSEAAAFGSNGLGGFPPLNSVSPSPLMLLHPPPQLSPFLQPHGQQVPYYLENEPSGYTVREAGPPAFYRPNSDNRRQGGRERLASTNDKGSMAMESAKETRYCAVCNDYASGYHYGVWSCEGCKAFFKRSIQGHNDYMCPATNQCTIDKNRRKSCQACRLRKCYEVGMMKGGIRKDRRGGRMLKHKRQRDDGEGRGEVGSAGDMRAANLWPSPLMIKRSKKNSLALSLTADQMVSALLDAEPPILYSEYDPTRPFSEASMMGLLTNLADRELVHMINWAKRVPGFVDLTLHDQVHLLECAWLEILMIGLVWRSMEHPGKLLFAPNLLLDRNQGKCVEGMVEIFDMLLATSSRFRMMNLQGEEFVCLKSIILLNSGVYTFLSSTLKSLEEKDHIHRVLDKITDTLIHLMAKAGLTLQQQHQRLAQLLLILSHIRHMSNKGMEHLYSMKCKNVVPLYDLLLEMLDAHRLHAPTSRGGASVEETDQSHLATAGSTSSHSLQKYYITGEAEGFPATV
Assay: Breast Cancer Cell ER-α In Cell Western Assay (SP1)
Type: cell-based
Conditions: MCF-7 cells, SP1 antibody, 4 or 24 hr post compound addition; read-out: ER-α In Cell Western Assay (SP1) IC50
Measured DC50, listed per entry.

Take a look at these entries with their results.
chemical_string=CC/C(=C(/c1ccc(/C=C/C(=O)O)cc1)c1ccc2[nH]ncc2c1)c1cccc(F)c1 target_or_system="ER-α (Homo sapiens, UniProt P03372)" assay_value="≤ 100 nM"
chemical_string=CC/C(=C(/c1ccc(/C=C/C(=O)O)cc1)c1ccc2[nH]ncc2c1)c1cc(F)ccc1C target_or_system="ER-α (Homo sapiens, UniProt P03372)" assay_value="≤ 100 nM"
chemical_string=CCCC/C(=C(/c1ccc(/C=C/C(=O)O)cc1)c1ccc2[nH]ncc2c1)c1ccccc1 target_or_system="ER-α (Homo sapiens, UniProt P03372)" assay_value="≤ 100 nM"
chemical_string=CC/C(=C(/c1ccc(/C=C/C(=O)O)cc1)c1cc2cn[nH]c2cc1Cl)c1ccccc1 target_or_system="ER-α (Homo sapiens, UniProt P03372)" assay_value="≤ 100 nM"
chemical_string=CCC/C(=C(/c1ccc(/C=C/C(=O)O)cc1)c1ccc2[nH]ncc2c1)c1ccccc1 target_or_system="ER-α (Homo sapiens, UniProt P03372)" assay_value="≤ 100 nM"

Which DC50 is reported with ER-α (Homo sapiens, UniProt P03372) for this entry: `CC/C(=C(/c1ccc(/C=C/C(=O)O)cc1)c1ccc2[nH]ncc2c1F)c1ccc(F)cc1C` ? ≤ 100 nM

Find DC50 (ER-α (Homo sapiens, UniProt P03372)) for the entry `CC/C(=C(/c1ccc(/C=C/C(=O)O)cc1)c1ccc2[nH]ncc2c1Cl)c1ccccc1` ≤ 100 nM

# value lookup — system ER-α (Homo sapiens, UniProt P03372), readout DC50, item `CC/C(=C(/c1ccc(/C=C/C(=O)O)cc1)c1ccc2[nH]nc(Cl)c2c1)c1ccccc1` > 100 nM

Tell me reported DC50 for `O=C(O)/C=C/c1ccc(/C(=C(\c2ccc(F)cc2Cl)C2CCC2)c2ccc3[nH]ncc3c2)cc1` , tested with ER-α (Homo sapiens, UniProt P03372). ≤ 100 nM

Write down the reported DC50 of `CC/C(=C(/c1ccc(/C=C/C(=O)O)cc1)c1ccc2[nH]ncc2c1)c1ccc(OC)cc1` , test system: ER-α (Homo sapiens, UniProt P03372). ≤ 100 nM

Param readout= DC50; system= ER-α (Homo sapiens, UniProt P03372); entry= `CC/C(=C(/c1ccc(/C=C/C(=O)O)cc1)c1ccc2[nH]nc(F)c2c1)c1ccccc1` ; returns value. ≤ 100 nM

Quick check: DC50 on ER-α (Homo sapiens, UniProt P03372), item `CC/C(=C(/c1ccc(/C=C/C(=O)O)cc1)c1ccc2[nH]ncc2c1)c1cccc(F)c1Cl` ? ≤ 100 nM

Recorded DC50 for `CC/C(=C(/c1ccc(/C=C/C(=O)O)cc1)c1ccc2[nH]ncc2c1)c1cccc(F)c1F` with ER-α (Homo sapiens, UniProt P03372), please? ≤ 100 nM
